- test: Permeability of the compound by PAMPA
- Type: ADME
- assayContext: read-out: permeability
measuredEndpoint: Papp

{"columns": ["smilesRepr", "Papp"],
 "data": [
  ["CC(=O)N1c2ccc(C3=CCNCC3)cc2N(Cc2ccccc2CO)C[C@@H]1C1CC1", "11 ×10⁻⁶ cm/s"]
]}

Entry CC(=O)N1c2ccc(-c3cnc(C(N)=O)nc3)cc2N(Cc2ccccc2CO)C[C@@H]1C1CC1 , Papp reported as 13.5 ×10⁻⁶ cm/s

----------
- measuredOn: Transcription initiation factor TFIID subunit 1-like (Homo sapiens, UniProt Q8IZX4)
- Sequence (Q8IZX4 whole entry): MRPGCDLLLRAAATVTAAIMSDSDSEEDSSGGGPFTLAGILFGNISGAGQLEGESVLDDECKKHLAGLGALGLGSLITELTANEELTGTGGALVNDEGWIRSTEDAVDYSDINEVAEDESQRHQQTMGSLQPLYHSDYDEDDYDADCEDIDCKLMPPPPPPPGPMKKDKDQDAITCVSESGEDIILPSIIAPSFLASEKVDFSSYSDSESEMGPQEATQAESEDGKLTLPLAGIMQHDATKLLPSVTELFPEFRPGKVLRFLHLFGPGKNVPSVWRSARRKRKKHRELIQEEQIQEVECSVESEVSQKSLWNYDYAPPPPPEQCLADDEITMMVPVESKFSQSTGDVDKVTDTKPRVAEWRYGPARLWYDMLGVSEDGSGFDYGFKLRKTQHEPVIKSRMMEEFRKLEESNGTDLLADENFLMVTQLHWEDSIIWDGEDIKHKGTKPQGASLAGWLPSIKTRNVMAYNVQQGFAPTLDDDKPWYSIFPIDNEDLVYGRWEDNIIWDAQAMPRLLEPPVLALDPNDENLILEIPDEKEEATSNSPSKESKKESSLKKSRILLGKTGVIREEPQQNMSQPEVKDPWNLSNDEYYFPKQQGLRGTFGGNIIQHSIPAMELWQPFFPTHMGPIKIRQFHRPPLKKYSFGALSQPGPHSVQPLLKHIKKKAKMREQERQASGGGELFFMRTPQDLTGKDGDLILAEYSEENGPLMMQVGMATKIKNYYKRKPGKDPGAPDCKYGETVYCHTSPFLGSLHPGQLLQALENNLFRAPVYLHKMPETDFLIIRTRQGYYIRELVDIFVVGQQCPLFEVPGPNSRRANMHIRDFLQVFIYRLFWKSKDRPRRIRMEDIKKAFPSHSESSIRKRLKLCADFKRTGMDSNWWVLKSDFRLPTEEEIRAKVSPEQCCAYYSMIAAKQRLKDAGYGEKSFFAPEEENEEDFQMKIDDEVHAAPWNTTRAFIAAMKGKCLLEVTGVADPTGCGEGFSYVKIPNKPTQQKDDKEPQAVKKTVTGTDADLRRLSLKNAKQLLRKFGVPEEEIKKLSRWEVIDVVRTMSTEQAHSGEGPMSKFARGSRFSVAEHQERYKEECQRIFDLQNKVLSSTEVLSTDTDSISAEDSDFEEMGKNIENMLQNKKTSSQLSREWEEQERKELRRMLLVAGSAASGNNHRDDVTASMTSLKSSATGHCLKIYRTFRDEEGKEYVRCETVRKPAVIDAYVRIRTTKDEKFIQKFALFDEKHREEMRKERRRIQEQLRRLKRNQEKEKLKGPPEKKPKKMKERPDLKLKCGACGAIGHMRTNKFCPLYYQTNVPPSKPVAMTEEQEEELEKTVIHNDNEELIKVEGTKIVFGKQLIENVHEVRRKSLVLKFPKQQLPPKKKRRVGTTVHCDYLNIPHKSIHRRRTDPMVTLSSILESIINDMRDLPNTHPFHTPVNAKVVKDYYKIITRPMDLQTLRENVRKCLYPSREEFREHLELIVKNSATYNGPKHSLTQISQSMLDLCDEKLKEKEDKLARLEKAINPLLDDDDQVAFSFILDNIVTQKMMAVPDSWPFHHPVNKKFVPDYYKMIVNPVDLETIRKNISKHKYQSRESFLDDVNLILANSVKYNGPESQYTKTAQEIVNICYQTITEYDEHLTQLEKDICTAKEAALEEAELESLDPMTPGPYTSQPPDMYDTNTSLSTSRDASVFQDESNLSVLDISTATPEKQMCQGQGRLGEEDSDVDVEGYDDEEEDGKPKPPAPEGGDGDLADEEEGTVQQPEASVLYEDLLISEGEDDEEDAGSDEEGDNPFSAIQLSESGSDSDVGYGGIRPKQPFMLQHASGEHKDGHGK
- test: Binding affinity to human partial length DNA-tagged TAF1L BD2 expressed in bacteria by BROMOscan method
pKd: −log10 of the molar value.
measuredEndpoint: pKd

The compound CC(=O)N1c2ccc(C3=CCNCC3)cc2N(Cc2ccccc2CO)C[C@@H]1C1CC1 showed pKd equal to < 4.52

----------
- test: Solubility of the compound in pH 7.4 phosphate buffered saline by chemiluminescent nitrogen detection method
- Format: physicochemical
measuredEndpoint: solubility (µM)
Field: numeric (µM). Do not append units.

Looking up CC(=O)N1c2ccc(-c3cnc(C(N)=O)nc3)cc2N(Cc2ccccc2CO)C[C@@H]1C1CC1 , I found its solubility recorded as 87

----------
- measuredOn: Bromodomain-containing protein 1 (Homo sapiens, UniProt O95696)
- Sequence (O95696 whole entry): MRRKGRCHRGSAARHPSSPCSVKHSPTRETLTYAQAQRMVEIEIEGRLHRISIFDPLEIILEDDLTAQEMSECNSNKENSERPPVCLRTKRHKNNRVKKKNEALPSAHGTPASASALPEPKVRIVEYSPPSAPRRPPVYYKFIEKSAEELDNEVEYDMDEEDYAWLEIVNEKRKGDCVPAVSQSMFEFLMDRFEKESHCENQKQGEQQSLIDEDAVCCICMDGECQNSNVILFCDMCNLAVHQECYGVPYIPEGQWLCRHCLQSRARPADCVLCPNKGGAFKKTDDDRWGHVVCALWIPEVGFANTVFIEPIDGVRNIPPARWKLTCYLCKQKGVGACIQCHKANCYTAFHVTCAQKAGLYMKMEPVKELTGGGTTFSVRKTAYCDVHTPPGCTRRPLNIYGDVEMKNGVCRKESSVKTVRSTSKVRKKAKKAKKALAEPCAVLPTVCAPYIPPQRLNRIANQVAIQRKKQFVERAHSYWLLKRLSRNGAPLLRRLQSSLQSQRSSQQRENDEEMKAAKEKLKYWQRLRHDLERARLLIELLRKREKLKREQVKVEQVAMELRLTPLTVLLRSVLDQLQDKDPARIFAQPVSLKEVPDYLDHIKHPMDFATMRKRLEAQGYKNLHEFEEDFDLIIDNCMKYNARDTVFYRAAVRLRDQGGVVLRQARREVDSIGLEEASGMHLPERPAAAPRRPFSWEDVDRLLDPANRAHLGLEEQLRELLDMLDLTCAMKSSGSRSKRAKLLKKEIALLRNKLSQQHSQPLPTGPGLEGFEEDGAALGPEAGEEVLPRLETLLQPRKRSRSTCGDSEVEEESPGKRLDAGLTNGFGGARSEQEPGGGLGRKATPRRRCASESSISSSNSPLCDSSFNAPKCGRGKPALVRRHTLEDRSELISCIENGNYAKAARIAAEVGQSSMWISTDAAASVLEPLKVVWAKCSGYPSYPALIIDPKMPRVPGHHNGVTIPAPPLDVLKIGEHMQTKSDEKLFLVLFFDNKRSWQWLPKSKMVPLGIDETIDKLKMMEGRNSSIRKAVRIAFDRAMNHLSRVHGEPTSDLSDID
- test: Binding affinity to human partial length DNA-tagged BRD1 expressed in bacterial by BROMOscan method
measuredEndpoint: Kd

Query CC(=O)N1c2ccc(C3=CCNCC3)cc2N(Cc2ccccc2CO)C[C@@H]1C1CC1 yields Kd of > 30.2 µM

----------
- test: physchem
- assayContext: buffer, pH 7.4, logD
- Description: Chromatographic hydrophobicity index, log D of the compound at pH 7.4 by HPLC method
Given measured chromatographic logD, output 1 if it is greater than or equal to 4 and -1 if not.

Solved entries (count: 5):
{"columns": ["compound", "qualitativeLabel"],
 "data": [
  ["CC(=O)N1c2ccc(-c3cnc(C(N)=O)nc3)cc2N(Cc2ccccc2CO)C[C@@H]1C1CC1", -1],
  ["CCC1CN(Cc2ccccc2)c2ccccc2N1C(C)=O (stereo not given)", 1],
  ["COc1cc(OC)c2c(=O)[nH]c(-c3cc(C)c(OCCO)c(C)c3)nc2c1", -1],
  ["CC(=O)N1c2ccccc2N(Cc2cccc(C)c2)CC1C1CC1 (stereo not given)", 1],
  ["CC(=O)N1CCN(Cc2ccccc2C(=O)O)c2ccccc21", -1]
]}

QUERY: Hello, I need to know if CCC1CN(Cc2ccccc2)c2cc(-c3cnc(C(N)=O)nc3)ccc2N1C(C)=O (stereo not given) has measured chromatographic logD not below 4. Thanks!
RESULT: -1

QUERY: For this compound, is measured chromatographic logD 4 or higher? CCC1CN(Cc2ccccc2)c2cc(-c3cncnc3)ccc2N1C(C)=O (stereo not given)
RESULT: 1

QUERY: Decide: chromatographic logD of CCC1CN(Cc2ccccc2)c2cc(-c3ccc(C(N)=O)cc3)ccc2N1C(C)=O (stereo not given) >= 4?
RESULT: 1

QUERY: # check: chromatographic logD of CCC1CN(Cc2ccccc2)c2cc(-c3ccncc3OC)ccc2N1C(C)=O (stereo not given) is greater than or equal to 4
RESULT: 1

----------
- test: physchem
- assayContext: buffer, pH 7.4, logD
hey, just use condition met if measured chromatographic logD is less than 5, otherwise condition not met

QUERY: State whether 5 exceeds chromatographic logD recorded for CCC1CN(Cc2ccccc2)c2cc(-c3cnc(C#N)nc3)ccc2N1C(C)=O (centres undefined) .
RESULT: condition not met

QUERY: chromatographic logD strictly < 5 for this molecule? CC(=O)N1c2ccccc2N(Cc2ccccc2CN)CC1C1CC1 (centres undefined)
RESULT: condition met
